B1: FCHO1 (parent)
chain: FTSSPSPFSSSSPENVEDSGLDSP

variants of: B1; assay: protein stability index of a GFP-peptide fusion (GPS, HEK-293T) (PSI 1-6); higher = more stable; conditions: c terminus: a fixed tail appended;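 also: lentivirally expressed fusions sorted by FACS into six bins by GFP to DsRed ratio, PSI derived from sequencing read proportions per bin multiplied by bin number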
Label YES for high-side protein stability index (at or above 2) and NO for low-side protein stability index (below it).

>>> assigned_label("L21G")
"YES"
>>> assigned_label("E14I")
"NO"
>>> assigned_label("P7R")
"YES"

API: above_or_equal(metric=protein stability index, cutoff=2) for item `S23C` NO

Decide: protein stability index of `S4V` >= 2? NO

Kindly determine if protein stability index recorded for `S23F` is above or exactly 2. YES
